System: Fer (mouse)
Test: phosphorylation enrichment, bacterial display (enrichment ratio); higher = better substrate or ligand; peptides without Tyr show the background
Entries and their measured phosphorylation enrichment follow.
Please reply with the value in numeric form only.

Record excerpt, results attached:
polymer sequence | phosphorylation enrichment
SPPPAYTPMSG [ERBB4_Y1056] | 0.379
VVHGSYDEIEG [SEC24A_Y263_S261G] | 0.594
LKETGYVVERP [BCLAF1_Y466] | 0.321
IQKWEYVPLGP [FAH_Y244] | 0.454
IEDPYYGNDFD [ACP1_Y133_S137F] | 0.786
CATIHYNFMCN [TP53_Y234_T230A_YF] | 0.602
GIVEDYRPPLY [ACVRL1_Y421_F425L] | 0.399

Here is another sequence to look at.
Fill in the recorded phosphorylation enrichment for this sequence, with Fer (mouse) as test system: GSRGKCSSGFR [ATM_Y332_Y332C]
0.433

* * *

Entries and their measured SH2 binding enrichment follow.
Biological target: SHP2-C SH2;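 also: peptide library displayed on the E. coli surface as eCPX fusions, selected cells deep-sequenced, score is each peptide's frequency after selection divided by its frequency in the input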
Assay: SH2 binding enrichment of the phosphorylated peptide, bacterial display (enrichment ratio); higher = better substrate or ligand; peptides without Tyr show the background
Please reply with the value in numeric form only.

polymer sequence | target or system | SH2 binding enrichment
VAHAVYQAVLS [SMG1_Y549] | SHP2-C SH2 | 0.828
GHEFIYVDRMQ [PDGFRB_Y581_P584R_YF] | SHP2-C SH2 | 0.741
NQSVRYDSSLK [ABCC8_Y1353_L1349Q] | SHP2-C SH2 | 0.609

Name the reported SH2 binding enrichment value associated with the sequence TFEFKYPEGSS [TGM4_Y440_YF]
0.463

What about WIPIQCPIISE [NOG_Y222_Y222C] ?
0.885

What about EGELRYMHSRV [ABCD1_Y281_K276E] ?
0.513

What about SSYSGYIMMPN [LEF1_Y114] ?
1

What about YRQLQYCPSVE [CTNND2_Y508] ?
0.488

What about GDPTEYFITAI [IGSF22_Y501_S503I_YF] ?
0.467

What about NFYEYYVDDPP [GCHFR_Y48] ?
0.505

What about VIKDKYPKARY [APTX_Y209] ?
1.05

What about SKNYTYIWWLN [PSG4_Y271] ?
0.657

What about FKRAVYCIIGR [NUP93_Y391_YF] ?
0.686

What about VFAPDYIAGVS [NOB1_Y366] ?
0.755

What about RLAKTYETTLE [ALB_Y377] ?
0.569

What about FEEDSYVTRSQ [RET_Y905_K907T_YF] ?
0.548

What about DEGVNYFMSKG [FBXO8_Y156] ?
0.544

What about IVLRSYPASDH [NID2_Y449_G453D] ?
0.793

What about SISLRYEGRVY [ABL1_Y167] ?
0.881

* * *

Entries and their measured phosphorylation enrichment follow.
Molecular target: EPHB1 (UniProt P54762)
Sequence (P54762 whole entry, looked up): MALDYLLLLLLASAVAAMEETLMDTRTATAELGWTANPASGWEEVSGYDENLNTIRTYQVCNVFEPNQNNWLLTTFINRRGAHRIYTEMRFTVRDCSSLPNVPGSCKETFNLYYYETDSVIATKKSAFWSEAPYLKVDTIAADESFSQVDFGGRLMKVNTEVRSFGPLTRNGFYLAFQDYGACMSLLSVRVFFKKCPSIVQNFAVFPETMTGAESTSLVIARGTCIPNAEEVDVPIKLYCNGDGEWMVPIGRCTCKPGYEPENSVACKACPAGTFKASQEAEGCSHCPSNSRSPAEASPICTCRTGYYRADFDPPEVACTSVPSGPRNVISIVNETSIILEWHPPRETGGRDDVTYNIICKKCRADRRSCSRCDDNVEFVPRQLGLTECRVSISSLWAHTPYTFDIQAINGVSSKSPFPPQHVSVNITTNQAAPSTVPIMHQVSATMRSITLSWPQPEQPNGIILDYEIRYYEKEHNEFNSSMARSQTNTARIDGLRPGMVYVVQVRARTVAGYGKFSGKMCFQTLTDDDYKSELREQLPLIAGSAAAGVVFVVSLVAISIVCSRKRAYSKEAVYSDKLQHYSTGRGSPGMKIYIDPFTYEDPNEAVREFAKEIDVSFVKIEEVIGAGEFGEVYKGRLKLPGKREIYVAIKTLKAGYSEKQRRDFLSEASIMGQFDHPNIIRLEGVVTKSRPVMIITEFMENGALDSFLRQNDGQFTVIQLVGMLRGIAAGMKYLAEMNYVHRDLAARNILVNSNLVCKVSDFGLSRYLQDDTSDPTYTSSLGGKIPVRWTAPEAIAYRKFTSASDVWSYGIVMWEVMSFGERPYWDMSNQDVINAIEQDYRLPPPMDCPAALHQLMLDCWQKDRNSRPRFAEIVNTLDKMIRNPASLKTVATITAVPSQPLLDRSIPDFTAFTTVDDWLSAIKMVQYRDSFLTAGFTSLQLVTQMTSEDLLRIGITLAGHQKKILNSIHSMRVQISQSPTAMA
Assay: phosphorylation enrichment, bacterial display (enrichment ratio); higher = better substrate or ligand; peptides without Tyr show the background
Please reply with the value in numeric form only.

Record excerpt, results attached:
polymer sequence | recorded measurement
GLDSSYLLRDS [SH2D1A_Y29_G27S] | 0.343
ASGKYYAMKIL [AKT3_Y174] | 0.313
SISLRYEGRVY [ABL1_Y167] | 0.606
IETGKYEILTE | 0.684
GRIHSYRGHLW [VHL_Y112_R107G] | 0.387

Name the reported phosphorylation enrichment value associated with the sequence YASALYGQRRS [FGF11_Y162_R163G]
0.391

What about WISNRYPDFSS [PRPH2_Y184_L185P] ?
0.434

What about NTGNYYDLYGG [PTPN11_Y63_D61N] ?
18.3

What about KVPELYEIHTE [BCR_Y554_K558T] ?
0.94

What about PLFRKYWPNHI [GREB1L_Y1560_YF] ?
0.589

What about LDYNEYFRDLN [HPRT1_Y198] ?
0.741

What about EILLSYPRTGY [TGM1_Y365_L366P] ?
0.397

What about AQAGEYGAEAL [HBA1_Y25_H21Q] ?
0.609

What about KDQPDYKYQPR [SOX9_Y172_H169Q] ?
0.437

Sourced from the supplement of paper PMC10065799
